Molecular target: Dual specificity protein kinase CLK2 (Homo sapiens, UniProt P49760); note: in the data inactive means no Kd found up to 30 µM
Sequence (P49760 whole entry): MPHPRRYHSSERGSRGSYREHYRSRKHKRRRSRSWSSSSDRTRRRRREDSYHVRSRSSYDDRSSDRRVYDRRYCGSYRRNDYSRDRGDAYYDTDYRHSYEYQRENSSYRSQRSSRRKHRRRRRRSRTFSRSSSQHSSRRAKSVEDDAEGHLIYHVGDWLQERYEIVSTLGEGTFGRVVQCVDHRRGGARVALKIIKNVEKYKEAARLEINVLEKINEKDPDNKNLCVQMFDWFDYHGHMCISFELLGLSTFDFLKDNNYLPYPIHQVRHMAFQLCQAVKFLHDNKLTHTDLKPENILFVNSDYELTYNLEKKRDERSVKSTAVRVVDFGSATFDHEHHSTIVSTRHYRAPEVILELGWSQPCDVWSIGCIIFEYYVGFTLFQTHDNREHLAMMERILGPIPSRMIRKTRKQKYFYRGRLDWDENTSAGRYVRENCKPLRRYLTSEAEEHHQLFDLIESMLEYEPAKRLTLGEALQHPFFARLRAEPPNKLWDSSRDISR
Active and inactive are the calls of the source.
Outcome codes: active, inactive

{"columns": ["COMPOUND", "CLASS ASSIGNMENT"],
 "data": [
  ["COc1cc(F)c(F)c(Nc2ccc(I)cc2F)c1NS(=O)(=O)C1(C[C@H](O)CO)CC1", "inactive"],
  ["FC(F)(F)c1ccc(CNc2ccc(Cc3c[nH]c4ncc(Cl)cc34)cn2)cn1", "inactive"],
  ["COc1ccc(-c2ccc3ncc4c(c3c2)n(-c2ccc(N3CCNCC3)c(C(F)(F)F)c2)c(=O)n4C)cn1 [BGT-226 FREE BASE]", "inactive"],
  ["COc1cc2nccc(Oc3ccc(NC(=O)C4(C(=O)Nc5ccc(F)cc5)CC4)cc3)c2cc1OC [CABOZANTINIB]", "inactive"],
  ["CCc1cc2c(cc1N1CCC(N3CCOCC3)CC1)C(C)(C)c1[nH]c3cc(C#N)ccc3c1C2=O", "active"],
  ["Cc1cc(-c2cc(OC(=O)c3ccccc3)ccc2Cl)cc2nnc(Nc3ccc(OCCN4CCCC4)cc3)nc12", "inactive"],
  ["S=C(NCc1ccc2c(c1)OCO2)N1CCN(c2ncnc3c2oc2ccccc23)CC1", "inactive"],
  ["O=C(NOC[C@H](O)CO)c1ccc(F)c(F)c1Nc1ccc(I)cc1F", "inactive"]
]}

---

Target: Phosphorylase b kinase gamma catalytic chain, liver/testis isoform (Homo sapiens, UniProt P15735); note: in the data inactive means no Kd found up to 30 µM
Sequence (P15735 whole entry): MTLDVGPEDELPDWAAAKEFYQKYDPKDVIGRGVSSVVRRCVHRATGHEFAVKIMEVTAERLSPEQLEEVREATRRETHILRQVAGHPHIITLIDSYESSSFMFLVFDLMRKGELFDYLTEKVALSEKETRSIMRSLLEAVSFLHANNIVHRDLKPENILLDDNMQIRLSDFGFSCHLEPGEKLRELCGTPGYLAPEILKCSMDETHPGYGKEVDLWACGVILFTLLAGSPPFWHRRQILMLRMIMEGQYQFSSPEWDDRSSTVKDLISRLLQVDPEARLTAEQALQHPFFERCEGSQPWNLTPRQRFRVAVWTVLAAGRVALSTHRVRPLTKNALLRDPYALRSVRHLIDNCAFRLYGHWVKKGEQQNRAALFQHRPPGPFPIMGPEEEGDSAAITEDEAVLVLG
The source made the active and inactive calls.
Possible outcomes: active, inactive

{"columns": ["MOLECULE SMILES", "CLASS ASSIGNMENT"],
 "data": [
  ["NC(=O)c1ccc(N(C(N)=O)c2c(F)cccc2F)nc1-c1ccc(F)cc1F", "inactive"],
  ["CNC(=O)c1cc(COc2nnc(Nc3ccc(Cl)cc3)c3ccoc23)ccn1", "inactive"],
  ["CCc1cc2c(cc1N1CCC(N3CCOCC3)CC1)C(C)(C)c1[nH]c3cc(C#N)ccc3c1C2=O", "active"],
  ["Cn1c(=O)n(-c2ccc(C(C)(C)C#N)cc2)c2c3cc(-c4cnc5ccccc5c4)ccc3ncc21", "inactive"]
]}

---

Let's go through some recorded Kd values for Mitogen-activated protein kinase kinase kinase kinase 3 (Homo sapiens, UniProt Q8IVH8) together.
Activity calls are given as the source filed them.
READOUT LABEL: Kd

{"columns": ["COMPOUND", "RECORDED MEASUREMENT"],
 "data": [
  ["O=S(=O)(c1cccc2c(O)nccc12)N1CCCNCC1 [HYDROXYFASUDIL]", "> 30 µM (inactive)"],
  ["COc1cc(F)c(F)c(Nc2ccc(I)cc2F)c1NS(=O)(=O)C1(C[C@H](O)CO)CC1", "> 30 µM (inactive)"],
  ["CN(c1ncccc1CNc1nc(Nc2ccc3c(c2)CC(=O)N3)ncc1C(F)(F)F)S(C)(=O)=O", "> 30 µM (inactive)"],
  ["Cc1cc(Nc2nc(N[C@@H](C)c3ncc(F)cn3)ncc2Cl)n[nH]1", "> 30 µM (inactive)"]
]}

---

Recorded Kd values for a group of compounds are listed next.
Target: Hepatocyte growth factor receptor (Homo sapiens); note: in the data inactive means no Kd found up to 30 µM
Sequence (P08581 whole entry): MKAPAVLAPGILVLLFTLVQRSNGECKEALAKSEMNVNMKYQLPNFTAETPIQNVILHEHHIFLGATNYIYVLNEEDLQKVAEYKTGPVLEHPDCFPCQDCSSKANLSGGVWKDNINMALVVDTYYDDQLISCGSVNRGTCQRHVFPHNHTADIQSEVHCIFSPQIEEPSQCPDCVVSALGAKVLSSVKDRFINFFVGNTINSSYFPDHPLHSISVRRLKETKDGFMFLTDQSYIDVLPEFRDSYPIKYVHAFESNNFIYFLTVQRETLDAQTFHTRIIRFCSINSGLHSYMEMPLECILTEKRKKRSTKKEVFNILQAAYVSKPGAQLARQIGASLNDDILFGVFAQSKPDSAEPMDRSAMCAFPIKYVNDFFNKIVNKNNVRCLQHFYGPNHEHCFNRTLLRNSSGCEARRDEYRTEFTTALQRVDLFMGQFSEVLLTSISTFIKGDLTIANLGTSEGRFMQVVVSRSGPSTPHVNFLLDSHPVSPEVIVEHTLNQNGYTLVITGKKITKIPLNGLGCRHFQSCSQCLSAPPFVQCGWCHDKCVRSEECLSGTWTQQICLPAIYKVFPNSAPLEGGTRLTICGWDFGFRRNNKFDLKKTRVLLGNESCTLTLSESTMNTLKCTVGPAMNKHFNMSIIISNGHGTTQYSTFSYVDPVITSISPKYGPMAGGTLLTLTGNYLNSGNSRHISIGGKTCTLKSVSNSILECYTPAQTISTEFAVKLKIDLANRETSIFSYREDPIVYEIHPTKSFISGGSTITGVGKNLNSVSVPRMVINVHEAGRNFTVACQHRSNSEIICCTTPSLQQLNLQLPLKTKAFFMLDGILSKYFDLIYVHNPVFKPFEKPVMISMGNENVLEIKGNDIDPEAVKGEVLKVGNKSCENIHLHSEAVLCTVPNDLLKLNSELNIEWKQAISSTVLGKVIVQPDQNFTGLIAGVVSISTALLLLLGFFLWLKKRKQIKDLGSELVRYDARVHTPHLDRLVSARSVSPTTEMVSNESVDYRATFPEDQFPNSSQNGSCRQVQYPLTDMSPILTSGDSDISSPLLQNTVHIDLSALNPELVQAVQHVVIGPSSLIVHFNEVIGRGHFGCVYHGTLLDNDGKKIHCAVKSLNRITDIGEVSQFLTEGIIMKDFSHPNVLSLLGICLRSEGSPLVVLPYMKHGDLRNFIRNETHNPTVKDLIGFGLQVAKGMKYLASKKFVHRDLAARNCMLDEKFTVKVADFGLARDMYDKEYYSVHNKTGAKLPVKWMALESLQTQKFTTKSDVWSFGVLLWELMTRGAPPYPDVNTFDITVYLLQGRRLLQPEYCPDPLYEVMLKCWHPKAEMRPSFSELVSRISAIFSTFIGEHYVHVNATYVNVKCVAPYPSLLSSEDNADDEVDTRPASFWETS
The source made the active and inactive calls.

{"columns": ["COMPOUND", "Kd"],
 "data": [
  ["O=C(NOC[C@H](O)CO)c1ccc(F)c(F)c1Nc1ccc(I)cc1F", "> 30 µM (inactive)"],
  ["COc1ccc2c(OCc3nnc4ccc(-c5ccccc5)nn34)ccnc2c1", "0.028 µM (active)"],
  ["CCc1cc2c(cc1N1CCC(N3CCOCC3)CC1)C(C)(C)c1[nH]c3cc(C#N)ccc3c1C2=O", "> 30 µM (inactive)"],
  ["O[C@H]1CC[C@H](Nc2ncc3nc(Nc4c(F)cc(F)cc4F)n([C@H]4CCOC4)c3n2)CC1", "> 30 µM (inactive)"],
  ["CNC(=O)c1ccc(Nc2ncc(C(F)(F)F)c(NCc3nccnc3N(C)S(C)(=O)=O)n2)cc1", "> 30 µM (inactive)"],
  ["C#Cc1cccc(Nc2ncnc3cc4c(cc23)OCCOCCOCCO4)c1", "> 30 µM (inactive)"],
  ["NC[C@@](O)(c1ccc(Cl)cc1)c1ccc(-c2cn[nH]c2)cc1", "> 30 µM (inactive)"],
  ["S=C(NCc1ccc2c(c1)OCO2)N1CCN(c2ncnc3c2oc2ccccc23)CC1", "> 30 µM (inactive)"],
  ["COc1ccc(-c2ccc3ncc4c(c3c2)n(-c2ccc(N3CCNCC3)c(C(F)(F)F)c2)c(=O)n4C)cn1 [BGT-226 FREE BASE]", "> 30 µM (inactive)"],
  ["CC[C@@](C)(Nc1ccnc(-c2c[nH]c3ncccc23)n1)C(=O)NCC(F)(F)F", "0.094 µM"],
  ["O=C(O)c1ccc2c(c1)nc(Nc1cccc(Cl)c1)c1ccncc12", "> 30 µM (inactive)"],
  ["O=C(NC[C@H](O)CO)c1ccncc1Nc1ccc(I)cc1F", "> 30 µM (inactive)"],
  ["FC(F)(F)c1ccc(CNc2ccc(Cc3c[nH]c4ncc(Cl)cc34)cn2)cn1", "> 30 µM (inactive)"],
  ["CCN1CCN(Cc2ccc(Nc3ncc(F)c(-c4cc(F)c5nc(C)n(C(C)C)c5c4)n3)nc2)CC1", "> 30 µM (inactive)"],
  ["CCOc1ccn(-c2ccc(F)cc2)c(=O)c1C(=O)Nc1ccc(Oc2ccnc(N)c2Cl)c(F)c1", "0.011 µM (active)"],
  ["COc1cc2ncnc(Nc3ccc(O)cc3)c2cc1OC", "> 30 µM (inactive)"],
  ["Cn1c(=O)c(F)c(Nc2ccc(I)cc2F)c2c(=O)n(C[C@@H](O)CO)cnc21", "> 30 µM (inactive)"]
]}

---

Biological target: Tyrosine-protein kinase Lyn (Homo sapiens, UniProt P07948); note: in the data inactive means no Kd found up to 30 µM
Sequence (P07948 whole entry): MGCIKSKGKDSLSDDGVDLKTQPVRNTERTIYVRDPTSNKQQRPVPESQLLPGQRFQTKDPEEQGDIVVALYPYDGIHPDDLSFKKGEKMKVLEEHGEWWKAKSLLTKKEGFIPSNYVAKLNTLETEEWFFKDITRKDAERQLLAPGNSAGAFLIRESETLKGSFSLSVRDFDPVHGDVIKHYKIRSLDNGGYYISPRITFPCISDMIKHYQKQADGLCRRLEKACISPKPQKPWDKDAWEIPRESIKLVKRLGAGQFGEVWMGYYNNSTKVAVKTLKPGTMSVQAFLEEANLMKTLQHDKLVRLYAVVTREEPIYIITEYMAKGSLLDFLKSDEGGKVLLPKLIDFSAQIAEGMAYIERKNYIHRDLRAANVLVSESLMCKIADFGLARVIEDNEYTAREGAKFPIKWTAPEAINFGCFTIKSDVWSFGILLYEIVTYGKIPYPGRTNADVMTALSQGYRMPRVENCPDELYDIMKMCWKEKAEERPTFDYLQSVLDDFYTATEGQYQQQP
The source made the active and inactive calls.
Outcomes: class 1 (active), class 0 (inactive)

{"columns": ["MOLECULE", "CLASS ASSIGNMENT"],
 "data": [
  ["COc1cc2ncnc(Nc3ccc(O)cc3)c2cc1OC [WHI-P131]", "class 0"],
  ["S=C(NCc1ccc2c(c1)OCO2)N1CCN(c2ncnc3c2oc2ccccc23)CC1 [AMUVATINIB]", "class 0"],
  ["COc1cc2nccc(Oc3ccc(NC(=O)C4(C(=O)Nc5ccc(F)cc5)CC4)cc3)c2cc1OC [CABOZANTINIB]", "class 1"],
  ["CN1CCN(c2nc(C3=C(c4c[nH]c5ccccc45)C(=O)NC3=O)c3ccccc3n2)CC1 [SOTRASTAURIN]", "class 0"],
  ["COc1cc2ncnc3c2cc1OCCCCCN(C)Cc1ccc(Br)cc1N3 [JNJ-26483327]", "class 0"],
  ["C=CCn1c(=O)c2cnc(Nc3ccc(N4CCN(C)CC4)cc3)nc2n1-c1cccc(C(C)(C)O)n1 [ADAVOSERTIB]", "class 0"],
  ["CCOc1ccn(-c2ccc(F)cc2)c(=O)c1C(=O)Nc1ccc(Oc2ccnc(N)c2Cl)c(F)c1 [BMS-777607]", "class 0"],
  ["O=S(=O)(c1cccc2cnccc12)N1CCCNCC1 [FASUDIL]", "class 0"],
  ["C[C@@H]1COC(Nc2ccc3ncnc(Nc4ccc(OCc5nccs5)c(Cl)c4)c3c2)=N1 [VARLITINIB]", "class 0"],
  ["COc1ccc2c(OCc3nnc4ccc(-c5ccccc5)nn34)ccnc2c1 [AMG-208]", "class 0"],
  ["Cc1c(NC(=O)OC[C@@H]2COCCN2)cn2ncnc(Nc3ccc4c(cnn4Cc4cccc(F)c4)c3)c12 [AC-480]", "class 0"],
  ["C=CC(=O)Nc1cc(Nc2nccc(-c3cn(C)c4ccccc34)n2)c(OC)cc1N(C)CCN(C)C [OSIMERTINIB]", "class 0"],
  ["Cn1c(=O)c(F)c(Nc2ccc(I)cc2F)c2c(=O)n(C[C@@H](O)CO)cnc21 [TAK-733]", "class 0"],
  ["c1cc(OCCN2CCCCC2)cc(-c2n[nH]c3ccc(-c4nc[nH]n4)cc23)c1 [CC-401]", "class 0"],
  ["CNC(=O)c1ccc(Nc2ncc(C(F)(F)F)c(NCc3nccnc3N(C)S(C)(=O)=O)n2)cc1 [DEFACTINIB]", "class 0"],
  ["CC(C)(O)CC(=O)NCCn1ccc2ncnc(Nc3ccc(Oc4cccc(C(F)(F)F)c4)c(Cl)c3)c21 [TAK-285]", "class 0"],
  ["COc1cc2ncnc(Nc3ccc(F)c(Cl)c3)c2cc1NC(=O)/C=C/CN1CCCCC1 [DACOMITINIB ANHYDROUS]", "class 0"]
]}
